system: THP1 luciferase reporter cells; test: cells; assay type: cell-based; details: Homo sapiens, THP-1, 16 h, read-out: THP1-ISG-Luc with PFO, EC50
pEC50: −log10 of the molar value.
Please provide measured pEC50 for the entries that follow.

{"compound": "Nc1nc2c(ncn2[C@@H]2O[C@@H]3COP(=O)(O)OC4C(O)[C@@H](COP(=O)(O)OC2C3OCC(F)(F)F)O[C@H]4n2cnc3c(N)ncnc32)c(=O)[nH]1 (stereo in doubt)", "tgt": "THP1 luciferase reporter cells", "pEC50": "6.00 to 7.00"}
{"compound": "Nc1nc2c(ccn2[C@@H]2O[C@@H]3COP(=O)(S)OC4[C@@H](COP(=O)(S)O[C@H]2C3O)O[C@@H](n2ccc3c(N)ncnc32)[C@H]4O)c(=O)[nH]1 (stereo partly shown)", "tgt": "THP1 luciferase reporter cells", "pEC50": "> 7.00"}

Respectfully, I request pEC50 for each entry included below.
1. Nc1nc2c(ncn2[C@@H]2O[C@@H]3COP(=O)(O)OC4C[C@H](n5ccc6ccccc65)O[C@@H]4COP(=O)(S)OC2C3O)c(=O)[nH]1 (single isomer, unassigned)
2. Nc1nc2c(ccn2[C@@H]2O[C@@H]3COP(=O)(O)OC4C(O)[C@H](n5cnc6c(N)ncnc65)O[C@@H]4COP(=O)(S)OC2C3O)c(=O)[nH]1 (single isomer, unassigned) [EB4]
3. Nc1nc2c(ncn2[C@@H]2O[C@@H]3COP(=O)(S)OC4C(O)[C@H](n5cnc6c(N)ncnc65)O[C@@H]4COP(=O)(S)OC2C3O)c(=O)[nH]1 (single isomer, unassigned)

Result:
["< 6.00", "< 6.00", "> 7.00"]

----------
system: THP1 luciferase reporter cells; assay: cells; format: cell-based; conditions: Homo sapiens, THP-1, 16 h, read-out: THP1-ISG-Luc with PFO, EC50
reportedEndpoint: EC50

The following compounds have reported results that may help.
{"compound": "COC1C2OP(=O)(O)OC[C@H]3O[C@@H](n4cnc5c(=O)[nH]c(N)nc54)C(OP(=O)(O)OC[C@H]2O[C@H]1n1cnc2c(N)ncnc21)C3OCC(F)(F)F (stereo in doubt) [EC10]", "reportedEndpoint": "EC50", "result": "> 1000 nM"}
{"compound": "Nc1nc2c(ncn2[C@@H]2O[C@@H]3COP(=O)(O)OC4C(O)[C@H](n5cnc6c5ncn5ccnc65)O[C@@H]4COP(=O)(O)OC2C3OCC(F)(F)F)c(=O)[nH]1 (stereo in doubt) [EC26]", "reportedEndpoint": "EC50", "result": "100 to 1000 nM"}
{"compound": "Nc1nc2c(ncn2[C@@H]2O[C@@H]3COP(=O)(O)OC4C(O)[C@H](n5cnc6c(N)ncnc65)O[C@@H]4COP(=O)(O)OC2C3OCC(F)(F)F)c(=O)[nH]1 (stereo in doubt) [EA2]", "reportedEndpoint": "EC50", "result": "< 100 nM"}
{"compound": "Nc1nc2c(ncn2[C@@H]2O[C@@H]3COP(=O)(S)OC4C(O)[C@H](n5nnc6c(N)ncnc65)O[C@@H]4COP(=O)(S)OC2C3O)c(=O)[nH]1 (some centres unmarked) [Example E19]", "reportedEndpoint": "EC50", "result": "> 1000 nM"}

# context switch: different compound, same EC50
Task: Look up EC50: Nc1nc2c(ccn2[C@@H]2O[C@@H]3COP(=O)(S)OC4C(O)[C@@H](COP(=O)(O)OC3C2O)O[C@H]4n2ccc3c(N)ncnc32)c(=O)[nH]1 (single isomer, unassigned) [EC8]
Result: > 1000 nM
